# measured-target: T1, FZD5-Fc (Homo sapiens, UniProt Q13467)
# T1 construct: The FZD5 portion of FZD5-Fc consists of the extracellular Ala27-Pro167 segment of FZD5; Fc (C); purchased R&D Systems 1617-FZ
# T1 sequence (Q13467 27-167): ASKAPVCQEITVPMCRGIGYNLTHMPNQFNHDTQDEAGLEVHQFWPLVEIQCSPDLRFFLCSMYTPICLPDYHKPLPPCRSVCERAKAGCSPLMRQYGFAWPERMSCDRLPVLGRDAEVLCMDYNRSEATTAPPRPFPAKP
# assay-remarks: Surface plasmon resonance analysis of IgG binding to Frizzled-Fc chimera
# run-conditions: SPR, FZD5-Fc
Below, each entry is listed alongside its reported Kd (dissociation constant).
Kindly answer with a numeric value in s⁻¹, unit omitted.

Look over these answered cases.
IgG-2921: anti-FZD5 IgG molecule incorporating antibody variable region Fv-2921 (antibody, V domains shown) VH: EVQLVESGGGLVQPGGSLRLSCAASGFNISYYYIHWVRQAPGKGLEWVASIYPSSGSTSYADSVKGRFTISADTSKNTAYLQMNSLRAEDTAVYYCARGAMDYWGQGTLVTVSS VL: DIQMTQSPSSLSASVGDRVTITCRASQSVSSAVAWYQQKPGKAPKLLIYSASSLYSGVPSRFSGSRSGTDFTLTISSLQPEDFATYYCQQWYAGSLITFGQGTKVEIK ... 9.81e-05
IgG-2916: anti-FZD5 IgG molecule incorporating antibody variable region Fv-2916 (antibody, V domains shown) VH: EVQLVESGGGLVQPGGSLRLSCAASGFNISYSSIHWVRQAPGKGLEWVASIYPSYSYTYYADSVKGRFTISADTSKNTAYLQMNSLRAEDTAVYYCARYGYYGMDYWGQGTLVTVSS VL: DIQMTQSPSSLSASVGDRVTITCRASQSVSSAVAWYQQKPGKAPKLLIYSASSLYSGVPSRFSGSRSGTDFTLTISSLQPEDFATYYCQQWYHYPYLITFGQGTKVEIK ... 1.3e-05
IgG-2920: anti-FZD5 IgG molecule incorporating antibody variable region Fv-2920 (antibody, V domains shown) VH: EVQLVESGGGLVQPGGSLRLSCAASGFNISYYYIHWVRQAPGKGLEWVASIYPSSGSTSYADSVKGRFTISADTSKNTAYLQMNSLRAEDTAVYYCARGGMDYWGQGTLVTVSS VL: DIQMTQSPSSLSASVGDRVTITCRASQSVSSAVAWYQQKPGKAPKLLIYSASSLYSGVPSRFSGSRSGTDFTLTISSLQPEDFATYYCQQWFAGALITFGQGTKVEIK ... 0.000317

Please supply the value of reported Kd (dissociation constant) for the item IgG-2910: anti-FZD5 IgG molecule incorporating antibody variable region Fv-2910 (antibody, V domains shown) VH: EVQLVESGGGLVQPGGSLRLSCAASGFNISYSYMHWVRQAPGKGLEWVASIYSSSSSTSYADSVKGRFTISADTSKNTAYLQMNSLRAEDTAVYYCARGAMDYWGQGTLVTVSS VL: DIQMTQSPSSLSASVGDRVTITCRASQSVSSAVAWYQQKPGKAPKLLIYSASSLYSGVPSRFSGSRSGTDFTLTISSLQPEDFATYYCQQWYGSHLITFGQGTKVEIK 0.000174
